Numbers sourced from patent US20120021972A1.

Target desc: human GLP-1 receptor (human, UniProt P43220 24-463)
Sequence (P43220 24-463): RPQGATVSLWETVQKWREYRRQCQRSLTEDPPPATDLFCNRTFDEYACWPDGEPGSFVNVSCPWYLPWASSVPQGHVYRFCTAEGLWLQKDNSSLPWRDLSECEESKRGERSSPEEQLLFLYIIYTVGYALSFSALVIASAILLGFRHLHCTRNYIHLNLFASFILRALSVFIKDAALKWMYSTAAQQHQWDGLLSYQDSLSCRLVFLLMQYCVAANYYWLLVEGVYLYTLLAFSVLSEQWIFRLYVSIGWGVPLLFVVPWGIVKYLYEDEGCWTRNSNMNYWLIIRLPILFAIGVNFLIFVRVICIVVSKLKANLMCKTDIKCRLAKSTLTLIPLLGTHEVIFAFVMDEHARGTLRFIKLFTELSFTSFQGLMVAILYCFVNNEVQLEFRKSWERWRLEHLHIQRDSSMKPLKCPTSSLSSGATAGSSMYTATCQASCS
Assay details: cell-based or functional assay
Non-standard residues stand in square brackets, D forms with d. No end group written: not given here. *: point of attachment. Bip(2'-Et-4'-OMe) = CCc1cc(OC)ccc1-c1ccc(C[C@H](N)C(=O)O)cc1; 2Cl‑APPA = 2-amino-5-(2-chlorophenyl)pentanoic acid; 2F‑APPA = 2-amino-5-(2-fluorophenyl)pentanoic acid; αMePhe(2-F) = C[C@](N)(Cc1ccccc1F)C(=O)O; hhPhe = N[C@@H](CCCc1ccccc1)C(=O)O; aThr = C[C@H](O)[C@H](N)C(=O)O; CNB = not defined here; Aib = CC(C)(N)C(=O)O; Moc = COC(=O)*
For each of the binders below, state its cAMP release, % activity, 1 nM.
All answers are understood in %, so give the number only.

Would you kindly share the measured cAMP release, % activity, 1 nM for Ac-H[Aib][CNB]GT[αMePhe(2-F)]TSD[Bip(2'-Et-4'-OMe)][hhPhe] (reading uncertain) [Seq. ID. No. 205: CH3CO-H-Aib-(CNB)-GT-(α-Me-2F-Phe)-TSD-Bip(OMe)-(APPA)] ?
96

What about this binder? HSQGTFTSD[Bip(2'-Et-4'-OMe)][2F‑APPA] [Seq. ID. No. 45: HSQGTFTSD-Bip(OMe)-(2F-APPA)]
51

What about this binder? Moc-H[Aib]QGT[αMePhe(2-F)]TSD[Bip(2'-Et-4'-OMe)][2F‑APPA] (also: reduced (CH2) bonds between 9-10 and 10-11) [Seq. ID. No. 196: CH3OCO-H-Aib-QGT-(α-Me-2F-Phe)-TSD-(CH2)-BiP(OMe)-(CH2)-(2F-APPA)]
39

What about this binder? HSQGTFTSD[Bip(2'-Et-4'-OMe)][2Cl‑APPA] [Seq. ID. No. 50: HSQGTFTSD-Bip(OMe)-(2Cl-APPA)]
60

What about this binder? H[Aib]QG[aThr][αMePhe(2-F)][aThr]SD[Bip(2'-Et-4'-OMe)][2F‑APPA] (also: reduced (CH2) bonds Z9-Z10 and Z10-Z11) [Seq. ID. No. 203: H-Aib-QG-T(allo)-(α-Me-2F-Phe)-T(allo)-SD-(CH2)-Bip(OMe)-(CH2)-(2F-APPA)]
86
